- ASSAY_PROCEDURE: chemical genetic growth profiling, strain panel (AID 1159580);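 also: tested at 20 µM; growth read once vehicle control cultures reached saturation at 30 °C; 1 = growth at the plate median or of vehicle wells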
- PROTOCOL_CONDITIONS: S. cerevisiae deletion strains, growth OD, locus YLR342W, strain FKS1 (second series), stronger effect = lower value
The whole screen tested about 5,500 compounds, of which about 2,000 (36%) were called active. Roughly 18% stayed inconclusive and do not appear here. The list shows a part of the results.
ASSAY_METRIC: normalized growth

>>> print(df.to_string())
                                   compound  observed_result
0  CC(=O)O[C@@H]1CC2C(C)(C)CCC(=O)[C@]2(C)C2CC[C@@]3(C)[C@H](c4ccoc4)OC(=O)C4OC43[C@@]21C (stereo partly drawn)             1.05
1  COc1cc([C@@H]2c3cc4c(cc3[C@H](O)[C@H]3COC(=O)[C@@H]23)OCO4)cc(OC)c1OC             1.02
2                            NCCc1cccc(O)c1            0.963
3      CC(N)Cc1ccc(O)cc1 (stereo not drawn)             1.08
4  COc1cc2cc[n+]3cc4c(OC)c(OC)ccc4cc3c2cc1OC             0.96
5  C[n+]1cc2c3c(ccc2c2ccc4cc5c(cc4c21)OCO5)OCO3           0.0743
6  CCC1C2CC3C4N(C)c5ccccc5C45CC(C2C5OC(C)=O)N3C1OC(C)=O (stereo not drawn)             1.03
7       CC(C)Oc1ccc2c(=O)cc(-c3ccccc3)oc2c1            0.911

###

- ASSAY_PROCEDURE: chemical genetic growth profiling, strain panel (AID 1159580);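 also: tested at 20 µM; growth read once vehicle control cultures reached saturation at 30 °C; 1 = growth at the plate median or of vehicle wells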
- PROTOCOL_CONDITIONS: S. cerevisiae deletion strains, growth OD, locus YHR079C, strain IRE1 (second series)
In all, about 5,500 compounds went through this assay and about 2,000 (36%) were called active. About 18% were inconclusive and are not listed. No stated cut-off is given here; in the data, active means normalized growth mostly below about 0.91 (no sharp cut-off); inconclusive means no clear call, values can overlap the other calls; inactive means mostly above about 0.92. The list shows a part of the results.
Labels: active, inactive

In [3]: df
Out[3]:
                                    compound  class_name
 0           CN(C)CCC=C1c2ccccc2C=Cc2ccccc21    inactive
 1  CCC/C=C/C=C/[C@@H]1C[C@@H](O)[C@@H](O)C(=O)[C@H]1C=O    inactive
 2       COc1cccc(-c2cc(=O)c3ccc(OC)cc3o2)c1      active
 3                      Nc1ccc(C(=O)O)c(O)c1    inactive
 4          CC(=O)Nc1ccc(OC(=O)c2ccccc2O)cc1    inactive
 5                           N[C@@H]1CONC1=O    inactive
 6  C=CCCCCCCCCCCCC(O)CC(O)CO (configuration not stated) (tested in a mixture with another compound)      active
 7                        CC(=O)Nc1cccc(O)c1    inactive
 8            CN(C)CCC=C1c2ccccc2CCc2ccccc21    inactive
 9       Cn1c(=O)c2[nH]c(C3CCCC3)nc2n(C)c1=O    inactive
10  Nc1ccc(C(=O)O)c(O)c1 (tested in a mixture with another compound)    inactive
11          CN(C)CC/C=C1/c2ccccc2COc2ccccc21    inactive
